Reported values: HepSE_hepatomegaly for Hepatotoxicity, one per item.
Numbers only.

Solved entries (count: 3):
[[record]]
compound = "CCC(=O)O[C@@H](O[P@](=O)(CCCCc1ccccc1)CC(=O)N1C[C@H](C2CCCCC2)C[C@H]1C(=O)O)C(C)C"
measured_target = "Hepatotoxicity"
reading = 1

[[record]]
compound = "CN1CCN2c3ncccc3Cc3ccccc3C2C1 (centres undefined)"
measured_target = "Hepatotoxicity"
reading = 0

[[record]]
compound = "CC1(C)S[C@@H]2[C@H](NC(=O)C(C(=O)O)c3ccccc3)C(=O)N2[C@H]1C(=O)O (some centres undefined)"
measured_target = "Hepatotoxicity"
reading = 0


Incoming: Provide one value: measured HepSE_hepatomegaly of CCOC(=O)[C@H](CCc1ccccc1)N[C@@H](C)C(=O)N1[C@H](C(=O)O)C[C@@H]2CCC[C@@H]21
Outgoing: 0

* * *

Field: HepSE_liver fatty. Provide a value for each of the compounds that follow.
# System: Hepatotoxicity
# CONDITION CONTEXT: Liver
One number for each entry.

Solved entries (count: 3):
[[record]]
compound = "Cc1cccc(C)c1OCC(C)N (centres undefined)"
reading = 0

[[record]]
compound = "CC(C)(C)NC(=O)[C@@H]1C[C@@H]2CCCC[C@@H]2CN1C[C@@H](O)[C@H](Cc1ccccc1)NC(=O)[C@H](CC(N)=O)NC(=O)c1ccc2ccccc2n1"
reading = 0

[[record]]
compound = "O=C(O)COCCN1CCN(C(c2ccccc2)c2ccc(Cl)cc2)CC1 (centres undefined)"
reading = 0


Proceed to the following item.
Incoming: Provide one value: measured HepSE_liver fatty of Nc1ccn([C@@H]2O[C@H](CO)[C@@H](O)[C@@H]2O)c(=O)n1
Outgoing: 0

* * *

Reported values: HepSE_elevated liver function tests for Hepatotoxicity, one per item.
Where a SMILES comes first, the peptide text is derived from it. Bridges are numbered along the chain shown (N, C = ends). [ ]: non-standard residue; d: D form. The star is where a group is joined. Ileψ(thiazoline)Cys = CC[C@H](C)[C@H](N)C1=N[C@H](C(=O)*)CS1; dOrn = NCCC[C@@H](N)C(=O)O
Give bare numbers.

[[record]]
compound = "CC[C@H](C)[C@H](N)C1=N[C@H](C(=O)N[C@@H](CC(C)C)C(=O)N[C@H](CCC(=O)O)C(=O)N[C@H](C(=O)N[C@H]2CCCCNC(=O)[C@H](CC(N)=O)NC(=O)[C@@H](CC(=O)O)NC(=O)[C@H](Cc3cnc[nH]3)NC(=O)[C@@H](Cc3ccccc3)NC(=O)[C@H]([C@@H](C)CC)NC(=O)[C@@H](CCCN)NC2=O)[C@@H](C)CC)CS1 [BACITRACIN] ({Ileψ(thiazoline)Cys}-L[dE]IK[dOrn]I[dF]H[dD]N; lactam 4-C)"
readout_label = "HepSE_elevated liver function tests"
reading = 0


Proceed to the following item.
Incoming: Provide one value: measured HepSE_elevated liver function tests of CC(C)Cc1ccc(C(C)C(=O)O)cc1 (configuration not stated) [IBUPROFEN]
Outgoing: 0

* * *

Field: HepSE_cholecystitis. Provide a value for each of the substances that follow.
# System: Hepatotoxicity
Answers are plain numbers.

[[record]]
substance = "NITROPRUSSIDE"
reading = 0

[[record]]
substance = "PORFIMER SODIUM"
reading = 0

[[record]]
substance = "SEVELAMER"
reading = 0

[[record]]
substance = "UROFOLLITROPIN"
reading = 0

[[record]]
substance = "GOLD SODIUM THIOMALATE"
reading = 0


Proceed to the following item.
Incoming: Provide one value: measured HepSE_cholecystitis of GADODIAMIDE
Outgoing: 0
